EC50: recorded values
- system: human GPR119 (Homo sapiens, UniProt Q8TDV5)
- Sequence (Q8TDV5 whole entry): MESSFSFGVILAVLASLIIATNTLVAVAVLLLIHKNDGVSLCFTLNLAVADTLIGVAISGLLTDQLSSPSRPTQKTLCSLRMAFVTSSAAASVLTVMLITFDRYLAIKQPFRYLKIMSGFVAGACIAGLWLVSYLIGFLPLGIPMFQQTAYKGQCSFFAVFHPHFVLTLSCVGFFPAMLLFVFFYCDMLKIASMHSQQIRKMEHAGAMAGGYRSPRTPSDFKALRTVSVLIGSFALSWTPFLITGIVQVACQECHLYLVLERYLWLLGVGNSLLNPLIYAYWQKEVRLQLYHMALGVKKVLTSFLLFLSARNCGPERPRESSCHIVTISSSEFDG
- measurement_description: Functional cellular assay measuring GPR119-mediated cAMP release (HTRF), HEK-293 cells stably expressing recombinant GPR119
- condition_label: cell line expressing human GPR119; cAMP response, 30 minutes at room temperature
Field format: number, assumed nM, no unit text.

compound | EC50, nM
O=C1CCc2c(F)cc(N3CC[C@@H](Oc4ccnc(OC5CCC5)c4)C3=O)cc21 | 28
CCCc1cc(O[C@@H]2CCN(c3cc(F)c4c(c3)C(=O)CC4)C2=O)cnc1OCC1CC1 | 109
O=C1CCc2c(F)cc(N3CC[C@@H](Oc4ccc(OC5CCCOC5)nc4)C3=O)cc21 (stereo partly shown) [Example 2-11] | 29

Look up EC50 for this compound: O=C1CCc2ccc(N3CC[C@@H](Oc4ccc(Oc5ccccc5)cc4)C3=O)cc21 145

Origin of the recorded values: patent US8853412B2
